Reference for the values: patent US20120178694A1

Target: biotinylated C3b (UniProt P01024)
Experiment: SPR on immobilised C3b; ratio relative to peptide 14
Bridge positions count the residues as written; N and C are the ends. Square brackets hold non-standard residues; d marks the D form. Trp(1-Me) = Cn1cc(C[C@H](N)C(=O)O)c2ccccc21; NMeI = CC[C@H](C)[C@H](NC)C(=O)O; Nle = CCCC[C@H](N)C(=O)O; Sar = CNCC(=O)O
MEASUREMENT_NAME: rka (fold)
All answers are understood in fold, so give the number only.

BINDER	rka / fold
Ac-ICV[Trp(1-Me)]QDW[Sar]AHRC[Nle]-NH2 (disulfide 2-12; SMILES CCCC[C@H](NC(=O)[C@@H]1CSSC[C@H](NC(=O)[C@@H](NC(C)=O)[C@@H](C)CC)C(=O)N[C@@H](C(C)C)C(=O)N[C@@H](Cc2cn(C)c3ccccc23)C(=O)N[C@@H](CCC(N)=O)C(=O)N[C@@H](CC(=O)O)C(=O)N[C@@H](Cc2c[nH]c3ccccc23)C(=O)N(C)CC(=O)N[C@@H](C)C(=O)N[C@@H](Cc2c[nH]cn2)C(=O)N[C@@H](CCCNC(=N)N)C(=O)N1)C(N)=O) [Ac-Ic[CV(1-MeW)QDW(N-MeG)AHRC](Nle)-NH2]	1.5

// switching to the query binder
Return rka for the following binder: Ac-ICV[Trp(1-Me)]QDW[Sar]AHRC[NMeI]-NH2 (disulfide 2-12; SMILES CC[C@H](C)[C@H](NC(C)=O)C(=O)N[C@H]1CSSC[C@@H](C(=O)N(C)[C@H](C(N)=O)[C@@H](C)CC)NC(=O)[C@H](CCCNC(=N)N)NC(=O)[C@H](Cc2c[nH]cn2)NC(=O)[C@H](C)NC(=O)CN(C)C(=O)[C@H](Cc2c[nH]c3ccccc23)NC(=O)[C@H](CC(=O)O)NC(=O)[C@H](CCC(N)=O)NC(=O)[C@H](Cc2cn(C)c3ccccc23)NC(=O)[C@H](C(C)C)NC1=O, Sar^8, (NMe)Ile^13; also called peptide 21; analog 21) [Ac-Ic[CV(1-MeW)QDW(N-MeG)AHRC](N-MeI)-NH2]
1.5
